- PROCEDURE_SUMMARY: Cytotoxicity against mouse J774.A1 cells assessed as viable cells at 50 ug/mL incubated for 24 hrs by CCK-8 assay relative to control
- Assay type: toxicity, cell-based
- CONDITION_PARAMETERS: at 50 µg/mL, read-out: Activity
VALUE_KIND: viability at 24 h, 50 ug/mL (%)
# output: bare number, implied unit %

| ITEM_SMILES | viability at 24 h, 50 ug/mL [%] |
| --- | --- |
| CCCCCCCCCN1CCCc2cc(OCCCCNC(=N)N)ccc21 | 42.5 |

# input for lookup
Problem: Can you share its viability at 24 h, 50 ug/mL? I mean this compound: CC(C)=CCN1CCCc2cc(OCCCCCCCCNC(=N)N)ccc21
Solution: 31.3

###

- PROCEDURE_SUMMARY: Cytotoxicity against mouse J774.A1 cells assessed as viable cells at 12.5 ug/mL incubated for 24 hrs by CCK-8 assay relative to control
- Format: toxicity, cell-based
- CONDITION_PARAMETERS: at 12.5 µg/mL, read-out: Activity
VALUE_KIND: viability at 24 h, 12.5 ug/mL (%)
# output: bare number, implied unit %

| ITEM_SMILES | viability at 24 h, 12.5 ug/mL (%) |
| --- | --- |
| CC(C)=CCN1CCCc2cc(OCCCCCCCCNC(=N)N)ccc21 | 90 |

Problem: Can you share its viability at 24 h, 12.5 ug/mL? I mean this compound: CCCCCCCCCN1CCCc2cc(OCCCCNC(=N)N)ccc21
Solution: 91.9

###

- PROCEDURE_SUMMARY: Cytotoxicity against mouse J774.A1 cells assessed as viable cells at 6.25 ug/mL incubated for 24 hrs by CCK-8 assay relative to control
- Format: toxicity, cell-based
- CONDITION_PARAMETERS: at 6.25 µg/mL, read-out: Activity
Some molecules, each annotated with its measured viability at 24 h, 6.25 ug/mL.
# output: bare number, implied unit %

Problem: Can you share its viability at 24 h, 6.25 ug/mL? I mean this molecule: CC(C)=CCN1CCCc2cc(OCCCCCCCCNC(=N)N)ccc21
Solution: 96.3

Problem: Can you share its viability at 24 h, 6.25 ug/mL? I mean this molecule: CCCCCCCCCN1CCCc2cc(OCCCCNC(=N)N)ccc21
Solution: 97.4

###

Some compounds, each annotated with its measured viability at 24 h, 3.125 ug/mL.
- PROCEDURE_SUMMARY: Cytotoxicity against mouse corneal epithelial cells assessed as viable cells at 3.125 ug/mL incubated for 24 hrs by CCK-8 assay relative to control
- Assay type: toxicity, cell-based, Corneal epithelial cell
- CONDITION_PARAMETERS: at 3.125 µg/mL, read-out: Activity
Report field: quantity (unit follows the number).

| ITEM_SMILES | RESULT |
| --- | --- |
| CCCCCCCCCN1CCCc2cc(OCCCCNC(=N)N)ccc21 | 95.3% |

# input for lookup
Problem: Can you share its viability at 24 h, 3.125 ug/mL? I mean this compound: CC(C)=CCN1CCCc2cc(OCCCCCCCCNC(=N)N)ccc21
Solution: 99.7%

###

Some compounds, each annotated with its measured viability at 24 h, 3.125 ug/mL.
- PROCEDURE_SUMMARY: Cytotoxicity against mouse J774.A1 cells assessed as viable cells at 3.125 ug/mL incubated for 24 hrs by CCK-8 assay relative to control
- Type: toxicity, cell-based
- CONDITION_PARAMETERS: at 3.125 µg/mL, read-out: Activity

| ITEM_SMILES | viability at 24 h, 3.125 ug/mL |
| --- | --- |
| CCCCCCCCCN1CCCc2cc(OCCCCNC(=N)N)ccc21 | 98.3% |

# input for lookup
Problem: Can you share its viability at 24 h, 3.125 ug/mL? I mean this compound: CC(C)=CCN1CCCc2cc(OCCCCCCCCNC(=N)N)ccc21
Solution: 99.5%

###

Some compounds, each annotated with its measured viability at 24 h, 25 ug/mL.
- PROCEDURE_SUMMARY: Cytotoxicity against mouse corneal epithelial cells assessed as viable cells at 25 ug/mL incubated for 24 hrs by CCK-8 assay relative to control
- Format: toxicity, cell-based, Corneal epithelial cell
- CONDITION_PARAMETERS: at 25 µg/mL, read-out: Activity
# output: bare number, implied unit %

| ITEM_SMILES | viability at 24 h, 25 ug/mL (%) |
| --- | --- |
| CC(C)=CCN1CCCc2cc(OCCCCCCCCNC(=N)N)ccc21 | 76.9 |

# input for lookup
Problem: Can you share its viability at 24 h, 25 ug/mL? I mean this compound: CCCCCCCCCN1CCCc2cc(OCCCCNC(=N)N)ccc21
Solution: 57.7

###

- Test system: Staphylococcus aureus
- PROCEDURE_SUMMARY: Antimicrobial activity against methicillin-resistant Staphylococcus aureus N315 assessed as bacterial growth inhibition incubated for 24 hrs by Muller Hinton broth based dilution assay
- Assay type: functional
Some molecules, each annotated with its measured log10 MIC.
Annotation: log10 of MIC, µg/mL basis.

Example cases with answers are listed next.
| ITEM_SMILES | QUANTITATIVE_RESULT |
| --- | --- |
| CCCCCCCCCN1CCCc2cc(OCC(=O)N[C@@H](CCCNC(=N)N)C(=O)OC)ccc21 | 0.19 |
| CCCCCNCCCCOc1ccc2c(c1)CCCN2CC=C(C)C | 0.80 |
| CC(C)=CCN1CCCc2cc(OCCCCNCCN(CCN)CCN)ccc21 | 0.80 |
| CCCCN1CCCc2cc(OCCCCBr)ccc21 | 0.80 |

Problem: Can you share its log10 MIC? I mean this molecule: CCCCCCCN1CCCc2cc(O)ccc21
Solution: 1.10

Problem: Can you share its log10 MIC? I mean this molecule: CCCCCCCCCN1CCCc2cc(OCCCCNC(=N)N)ccc21
Solution: -0.11

Problem: Can you share its log10 MIC? I mean this molecule: CCCCCCCN1CCCc2cc(OCC(=O)N[C@@H](CCCNC(=N)N)C(=O)N[C@@H](CCCNC(=N)N)C(=O)OC)ccc21
Solution: 0.49

Problem: Can you share its log10 MIC? I mean this molecule: CC(C)=CCN1CCCc2cc(OCCCCCCCCCCCCNC(=N)N)ccc21
Solution: -0.11

###

Some molecules, each annotated with its measured MIC.
- System: Staphylococcus aureus
- PROCEDURE_SUMMARY: Antimicrobial activity against Staphylococcus aureus ATCC29213 assessed as bacterial growth inhibition incubated for 24 hrs by Muller Hinton broth based dilution assay
- Format: functional

Example cases with answers are listed next.
| ITEM_SMILES | ASSAYED_TARGET | RESULT |
| --- | --- | --- |
| CCCCCCCCCN1CCCc2cc(OCCCCNC(=N)N)ccc21 | Staphylococcus aureus | 1.56 µg/mL |
| CC(C)=CCN1CCCc2cc(OCCCCN3CCCC3)ccc21 | Staphylococcus aureus | > 50 µg/mL |
| CC(C)=CCC/C(C)=C/CN1CCCc2cc(OCCCCCCCCNC(=N)N)ccc21 | Staphylococcus aureus | 3.12 µg/mL |
| CCCCCCCN1CCCc2cc(OCCCCCCCCNC(=N)N)ccc21 | Staphylococcus aureus | 1.56 µg/mL |

Problem: Can you share its MIC? I mean this molecule: CCCN1CCCc2cc(O)ccc21
Solution: > 50 µg/mL

Problem: Can you share its MIC? I mean this molecule: CCCCCCCCCN1CCCc2cc(OCC(=O)N[C@@H](CCCNC(=N)N)C(=O)OC)ccc21
Solution: 3.12 µg/mL

Problem: Can you share its MIC? I mean this molecule: CC(C)=CCC/C(C)=C/CN1CCCc2cc(OCCCCNC(=N)N)ccc21
Solution: 0.78 µg/mL

###

Some compounds, each annotated with its measured MIC.
- System: Staphylococcus aureus
- PROCEDURE_SUMMARY: Antimicrobial activity against Staphylococcus aureus ATCC29213 assessed as bacterial growth inhibition incubated for 24 hrs by Muller Hinton broth based dilution assay
- Type: functional
# output: bare number, implied unit µg/mL

Example cases with answers are listed next.
| ITEM_SMILES | MIC / µg/mL |
| --- | --- |
| CCCCCCCN1CCCc2cc(O)ccc21 | 12.5 |
| CCCCCN1CCCc2cc(O)ccc21 | 50 |
| CCCCCCCCCN1CCCc2cc(OCCCCBr)ccc21 | 6.25 |
| CC(C)=CCC/C(C)=C/CN1CCCc2cc(O)ccc21 | 12.5 |
| CC(C)=CCN1CCCc2cc(OCCCCCCCCCCNC(=N)N)ccc21 | 1.56 |
| CCCCCN1CCCc2cc(OCCCCBr)ccc21 | 25 |
| CCCCCCCCCN1CCCc2cc(OCC(=O)N[C@@H](CCCNC(=N)N)C(=O)N[C@@H](CCCNC(=N)N)C(=O)OC)ccc21 | 1.56 |
| CCCCCN1CCCc2cc(OCC(=O)N[C@@H](CCCNC(=N)N)C(=O)OC)ccc21 | 50 |

Problem: Can you share its MIC? I mean this compound: CCCCCCCN1CCCc2cc(OCC(=O)N[C@@H](CCCNC(=N)N)C(=O)N[C@@H](CCCNC(=N)N)C(=O)OC)ccc21
Solution: 6.25

Problem: Can you share its MIC? I mean this compound: CCCCCN1CCCc2cc(OCCCCNC(=N)N)ccc21
Solution: 1.56

Problem: Can you share its MIC? I mean this compound: CC(C)=CCC/C(C)=C/CN1CCCc2cc(OCCCCBr)ccc21
Solution: 25

Problem: Can you share its MIC? I mean this compound: CCCCCCCN1CCCc2cc(OCCCCBr)ccc21
Solution: 12.5
